Recorded % Kill by entry
- System: HEK293 (293) cells
- TEST_METHOD_NOTES: In vitro cell viability (cell kill) assay, CCK8
- Type: cell-based, human
- ASSAY_CONTEXT: 293; Table 11; 3 days
QUANTITY_KIND: % Kill (%)

1. H1H6762P-DM1 (conjugate) VH: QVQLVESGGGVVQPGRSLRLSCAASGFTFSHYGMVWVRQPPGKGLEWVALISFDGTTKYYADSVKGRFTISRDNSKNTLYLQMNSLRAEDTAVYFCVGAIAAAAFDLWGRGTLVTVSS VL: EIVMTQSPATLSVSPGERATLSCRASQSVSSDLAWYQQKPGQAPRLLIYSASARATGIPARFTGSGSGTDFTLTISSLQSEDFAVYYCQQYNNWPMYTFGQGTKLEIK : 89
2. H1H6793P-DM1 (conjugate) VH: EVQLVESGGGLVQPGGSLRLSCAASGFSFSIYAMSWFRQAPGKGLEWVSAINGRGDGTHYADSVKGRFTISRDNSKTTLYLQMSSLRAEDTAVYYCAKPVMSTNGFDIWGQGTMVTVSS VL: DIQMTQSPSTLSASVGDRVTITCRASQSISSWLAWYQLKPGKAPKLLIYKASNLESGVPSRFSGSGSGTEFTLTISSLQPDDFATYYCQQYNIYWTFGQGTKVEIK : 84
3. H1H6953N-DM1 (conjugate) VH: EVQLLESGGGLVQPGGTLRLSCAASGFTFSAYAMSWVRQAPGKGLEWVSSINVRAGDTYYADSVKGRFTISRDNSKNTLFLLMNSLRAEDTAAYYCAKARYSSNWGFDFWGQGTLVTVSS VL: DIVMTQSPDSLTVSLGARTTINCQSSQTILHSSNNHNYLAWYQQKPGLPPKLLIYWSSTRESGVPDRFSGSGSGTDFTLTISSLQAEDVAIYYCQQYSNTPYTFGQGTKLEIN : 88
